Sourced from patent US9920010B2

molecular target: CXCR7 (Homo sapiens, UniProt P25106); test: PathHunter CHO-K1 CXCR7 b-arrestin recruitment assay (CXCR7 agonistic activity); settings: PathHunter CHO-K1 CXCR7 b-arrestin cell line
Sequence (P25106 whole entry): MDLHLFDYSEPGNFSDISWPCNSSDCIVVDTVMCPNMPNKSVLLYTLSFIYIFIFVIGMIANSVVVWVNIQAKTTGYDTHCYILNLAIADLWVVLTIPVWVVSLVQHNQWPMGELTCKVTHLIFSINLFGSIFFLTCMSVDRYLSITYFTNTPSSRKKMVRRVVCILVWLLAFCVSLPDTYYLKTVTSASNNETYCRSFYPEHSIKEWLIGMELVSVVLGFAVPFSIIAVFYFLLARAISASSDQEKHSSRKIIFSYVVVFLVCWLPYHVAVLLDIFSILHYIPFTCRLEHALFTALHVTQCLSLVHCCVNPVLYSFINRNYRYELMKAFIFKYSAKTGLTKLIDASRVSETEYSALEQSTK
Sequence (P32121 whole entry partner): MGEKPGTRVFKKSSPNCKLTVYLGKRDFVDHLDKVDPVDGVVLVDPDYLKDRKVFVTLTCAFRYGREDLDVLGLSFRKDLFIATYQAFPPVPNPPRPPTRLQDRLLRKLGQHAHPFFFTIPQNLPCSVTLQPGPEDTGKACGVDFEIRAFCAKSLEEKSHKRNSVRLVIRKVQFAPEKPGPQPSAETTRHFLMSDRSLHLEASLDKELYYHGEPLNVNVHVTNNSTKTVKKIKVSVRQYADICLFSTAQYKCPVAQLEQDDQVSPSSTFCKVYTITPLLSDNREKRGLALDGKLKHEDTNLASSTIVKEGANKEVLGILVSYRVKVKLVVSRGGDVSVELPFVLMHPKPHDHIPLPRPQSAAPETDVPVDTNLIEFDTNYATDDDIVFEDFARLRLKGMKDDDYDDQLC
metric.name: EC50 (nM)

CNCCN(Cc1ncccc1C(F)(F)F)C(=O)CNc1cccc2c1CCN(C(=O)OC)C2 :: 6

P = CN(C)CCN(Cc1ncccc1C(F)(F)F)C(=O)CNc1cccc2c1CN(CC1CC1)CC2
Q = CCC(=O)N1CCc2c(cccc2NCC(=O)N(CCN(C)C)Cc2ccc(Cl)cc2)C1
query: Please indicate which entry, P or Q , has the lower recorded EC50 value. Indicate which entry you chose by stating its label.
result: P
(P: 3 nM, Q: 102 nM)

---

target: UniProtKB P25106; test: PathHunter CHO-K1 CXCR7 b-arrestin recruitment assay (CXCR7 agonistic activity); details: PathHunter CHO-K1 CXCR7 b-arrestin cell line
metric.name: EC50 (nM)

As a guide, the following entries are already answered.
CCN1CCc2cccc(NCC(=O)N(CCN(C)C)Cc3cncc(Cl)c3)c2C1 :: 359
CN1CCCC1CCN(CCc1ccccc1)C(=O)CNc1cccc2c1CCN(CC1CC1)C2 (racemic) :: 16
O=C(CNc1cccc2c1CN(CC1CC1)CC2)N(CC(=O)N1CC(F)(F)C1)Cc1ncccc1C(F)(F)F :: 33

1 = C/C(=C\c1cccc2c1CCN(CC1CC1)C2)C(=O)N(CCN(C)C)Cc1ccccc1C(F)(F)F
2 = CN(C)CCN(Cc1ccccc1C(F)(F)F)C(=O)CN(C)c1cccc2c1CCN(CC1CC1)C2
query: Which shows the larger EC50 value: 1 or 2 ? Answer by stating the label of the chosen item.
result: 1
(1: 29 nM, 2: 3 nM)

---

biological target: CXCR7 (Homo sapiens); experiment: PathHunter CHO-K1 CXCR7 b-arrestin recruitment assay (CXCR7 agonistic activity); conditions: PathHunter CHO-K1 CXCR7 b-arrestin cell line
pEC50: −log10 of the molar value.
metric.name: pEC50

CNCCN(Cc1ncccc1Cl)C(=O)CNc1cccc2c1CCN(CC1CC1)C2 [compound 436] :: 8.05
Cc1cccc(CN(C(=O)/C=C/c2cccc3c2CCN(CC2CC2)C3)C2CC2)c1C [compound 141] :: 7.01
CN(C)CCN(Cc1ccccc1C(F)(F)F)C(=O)CNc1cccc2c1CCN(C(=O)C(C)(F)F)C2 [Example 362] :: 7.68

a = CC(CF)N(C)CCN(Cc1ccccc1C(F)(F)F)C(=O)CNc1cccc2c1CCN(CC1CC1)C2 (racemic) [compound 452]
b = CCN1CCc2cccc(NCC(=O)N(CCN(C)C)Cc3ccc(F)cc3)c2C1 [compound 504]
query: In the pair a and b , the larger recorded pEC50 belongs to which? Response format: the label of the selected entry.
result: a

a = CN(C)CCN(Cc1ncccc1Cl)C(=O)/C=C/c1cccc2c1CCN(CC1CC1)C2 [Example 333]
b = COCC(O)CN(Cc1ccccc1C(F)(F)F)C(=O)CNc1cccc2c1CCN(CC1CC1)C2 (centres unmarked) [Example 223]
c = O=C(CNc1cccc2c1CCN(CC1CC1)C2)N(Cc1ccccc1C(F)(F)F)CC(O)C(F)(F)F (racemic) [Example 242]
query: Sort these molecules on pEC50 so the largest reading comes first. Would you mind listing the labels in the order requested?
result: a, b, c
